molecular target: BAF250a ARID V1067G (UniProt O14497 968-1143, V1067G); assay: ITC; 25 C; dH -0.69 kcal/mol; n 1.04; ITC: 50 mM NaH2PO4 pH 6, 0.025 mM EDTA, 25 C; 20 uM DNA in cell titrated with 200 uM protein; conditions: protein: recombinant; tags: N-terminal 6xHis (pET28a); blunt; self-complementary palindrome, 2 copies; snap cooled on ice after heating
Sequence (O14497 968-1143 V1067G): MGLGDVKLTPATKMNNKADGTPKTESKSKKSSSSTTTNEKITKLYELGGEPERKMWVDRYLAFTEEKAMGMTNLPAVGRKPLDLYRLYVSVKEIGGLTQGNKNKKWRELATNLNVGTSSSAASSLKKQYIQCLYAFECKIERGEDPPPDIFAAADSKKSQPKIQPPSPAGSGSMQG
Measurement Name: Kd

Request: Record request: Kd value, item DD12 dsDNA (Dickerson dodecamer) (dsDNA) DNA 1: CGCGAATTCGCG DNA 2: CGCGAATTCGCG
Response: 694 nM
